Tested on: OVCAR-4 ovarian
Test: NCI tumour cell line growth inhibition, 48 h
QUANTITY NAME: TGI (µM)
// note: answer is a bare numeric in µM

Param item = "C[C@H](CCOc1cccc(CC(=O)O)c1)N(Cc1cccc(C(F)(F)F)c1Cl)CC(c1ccccc1)c1ccccc1" ; retrieve measured TGI. 21.9

Sample CCCCCCCC(=O)OCC1OC(n2cc(F)c(=O)[nH]c2=O)C(N)C(OC(=O)CCCCCCC)C1O (stereo not given) — what was its TGI? 29

Reported TGI, compound COc1cc(C2c3cc4c(cc3[C@@H](Nc3ccccc3)C3COC(=O)[C@H]23)OCO4)cc(OC)c1O (stereo not given in full) : ____ 34.6

Query: TGI; subject: "CCCCCCCCSC1=C(Cl)C(=O)C(OC)=C(OC)C1=O" 29.8

---

Test system: SNB-19 CNS
Assay: NCI tumour cell line growth inhibition, 48 h
QUANTITY NAME: GI50

// query GI50 value for entry C=CC12CCN(CC1)C(C(O)c1ccnc3ccc(OC)cc13)C2 (stereo not drawn) > 100 µM

Tell me the measured GI50 of "C[C@H](CCOc1cccc(CC(=O)O)c1)N(Cc1cccc(C(F)(F)F)c1Cl)CC(c1ccccc1)c1ccccc1" , please. 6.25 µM

Which value of GI50 has been reported for "COc1ccc(CNc2c3ccccc3nc3ccccc23)cc1F" in the records? 3.41 µM

Given the compound "O=C(Nc1nc(-c2c[nH]c3ccccc23)cs1)c1n[nH]c(=O)c2ccccc12" , what is its reported GI50? > 34.5 µM

Please give the measured GI50 for this compound: "O=c1[nH]c(O)c(C=Nc2ccc(-c3nc4ccccc4o3)cc2)c(=O)[nH]1" > 100 µM

Consider the compound shown here: C=C(C)C(C1C=C(CCC(C=O)=C(C)C)C(=O)O1)C1(OC)C=C(C)C(=O)O1 (stereo not drawn) What is its recorded GI50? > 100 µM

Item under review: COc1nc(=O)n(C2C=CC(=O)O2)cc1F (stereo not drawn) . Reported GI50? 22.3 µM

Fill in: GI50 of "NC(N)=Nc1nc2ccccc2o1" is ___ > 100 µM

---

Please provide measured TGI for the entries that follow.
Test system: HCT-15 colon
Experiment: NCI tumour cell line growth inhibition, 48 h

Could you tell me which TGI is on file for "O=c1cccc(C#CC#C[C@@H]2O[C@H]2CO)o1" ? 3.14 µM

Param item = Cc1cc(OP2(=O)NCc3ncccc3O2)ccc1Cl (stereo unspecified) ; retrieve measured TGI. > 100 µM

// TGI lookup, key: COC(=O)c1ccccc1CC1Cc2cccc(C)c2C1=O (stereo unspecified) 73.3 µM

Give its TGI value. Item: "COc1cc(O)c2c(=O)c(OC)c(-c3ccc(OC)c(O)c3)oc2c1" > 100 µM

Entry "O=C(c1ccccc1)c1ccc2c(c1)NC(=O)c1ccccc1SSc1ccccc1C(=O)N2" has what TGI? > 100 µM

Consider the compound shown here: CSc1nc2c(c(N(C)C)n1)C(O)n1c(nc3ccccc31)S2 (stereo unspecified) What is its recorded TGI? > 100 µM

Request the reported TGI associated with O/N=C1\CCCCC1C(NO)c1ccccc1 (stereo unspecified) > 100 µM

TGI lookup needed for CC(C(=O)COCc1ccccc1)P1(=O)OC(C)(C)CN1C(C)(C)C (stereo unspecified) , thanks. > 100 µM

What does the data say about its TGI? Entry: "COCOCCC#CCO" > 100 µM

Which measured TGI value corresponds to "COc1ccc(Cl)cc1NC(=O)c1ccc(NC2=C(Cl)C(=O)N(Cc3ccccc3)C2=O)cc1" ? > 100 µM

Suppose we examine the compound "Cc1cc(C[C@H]2O[C@@H]3OC(C)(C)O[C@@H]3[C@H]3OC(C)(C)O[C@H]32)c2ccccc2n1" ; what TGI value has been reported? > 100 µM

Give its TGI value. Item: "O=C1c2cccc3cccc(c23)C(=O)N1CCN(CCO)CCO" 56.2 µM

What does the data say about its TGI? Entry: COc1nc(=O)n(C2C=CC(=O)O2)cc1F (stereo unspecified) 12 µM

Param item = "C=C(C)[C@@H]1CC[C@]2(CN)CC[C@]3(C)[C@H](CC[C@@H]4[C@@]5(C)CCCNC(C)(C)[C@@H]5CC[C@]43C)[C@@H]12" ; retrieve measured TGI. 2.49 µM

Record request: TGI value, item "O=C(c1ccc([N+](=O)[O-])cc1[N+](=O)[O-])N(/N=C/C=C/c1ccccc1)c1nnc(-c2ccccc2)c(-c2ccccc2)n1" > 100 µM

State the recorded TGI for this entry: CC(C)C1CN(C(=O)OCc2ccccc2)C2N1C(=O)C2(C)OCc1ccccc1 (stereo unspecified) > 100 µM

Query (compound): "CN1CC[C@]2(c3cccc(O)c3)CC(=O)/C(=C/c3ccccc3)[C@@H]1C2" ; field requested: TGI 4.93 µM

Which value of TGI has been reported for "O=C1C=C(Nc2ccc(Cl)cc2C(=O)c2ccccc2)c2ccccc2C1=O" in the records? > 100 µM

Returns the measured TGI for the input compound. Input: "CN(C)CCN1CCC(Cc2ccccc2)CC1" > 80 µM

Which TGI value is on record for "O=[N+]([O-])c1cccnc1N=Nc1c(O)[nH]c2ccccc12" ? 16.5 µM

Looking for the measured TGI of "Cn1c2ccccc2c2c(=S)c3ccccc3ccc21" , can you help? > 100 µM

Could you tell me which TGI is on file for CCOc1ccc(NC(=O)CC2SC(=Nc3ccc(C)cc3C)NC2=O)cc1 (stereo unspecified) ? > 100 µM

# query: TGI of entry "CC(C)=CCC1=C(O)c2ccccc2C(=O)C1=O" > 100 µM

Fill blank: measured TGI of the compound CSC[C@H](NC(=O)COc1cccc2cnccc12)C(=O)NC(Cc1ccccc1)C(O)C(=O)N1CSC[C@H]1C(=O)NC(C)(C)C (stereo partly specified) is ____. > 100 µM

So what does the record say about TGI for "CC12c3c4ccc(C=O)c3Oc3ccc(C=O)c(c31)Oc1ccc(C=O)c(c12)O4" ? > 25 µM

# query: TGI of entry "CN(C)CCNC(=O)Cc1ccccc1Nc1c(Cl)cccc1Cl" 29.6 µM

Quick one: TGI for "C=C(C)CNCCN" ? > 100 µM

Name the reported TGI value associated with the compound CCCCCCCC(=O)OCC1OC(n2cc(F)c(=O)[nH]c2=O)C(N)C(OC(=O)CCCCCCC)C1O (stereo unspecified) 34.2 µM

Look at this compound and give its reported TGI. "Cc1nc2c(N)ncnc2o1" > 100 µM

I would be grateful if you could share the reported TGI for "C=C1C(=O)[C@@]23CC[C@@H]4[C@@]5(C)CCC[C@@]4(OC5=O)[C@@]2(C)CC[C@@H]1C3" . 2.44 µM

Give the measured TGI of "CC(C)(CO)CNc1nc(N)nc(Cl)c1/C=N/O" . > 100 µM

Values from PubChem BioAssay (NCI)
